- procedure.text: self-splicing fitness, log relative to wild type (ln ratio); higher = more splicing; Tetrahymena group I intron in knt gene, E. coli kanamycin selection, DiMSum; sequences stand for … in CUCUCU…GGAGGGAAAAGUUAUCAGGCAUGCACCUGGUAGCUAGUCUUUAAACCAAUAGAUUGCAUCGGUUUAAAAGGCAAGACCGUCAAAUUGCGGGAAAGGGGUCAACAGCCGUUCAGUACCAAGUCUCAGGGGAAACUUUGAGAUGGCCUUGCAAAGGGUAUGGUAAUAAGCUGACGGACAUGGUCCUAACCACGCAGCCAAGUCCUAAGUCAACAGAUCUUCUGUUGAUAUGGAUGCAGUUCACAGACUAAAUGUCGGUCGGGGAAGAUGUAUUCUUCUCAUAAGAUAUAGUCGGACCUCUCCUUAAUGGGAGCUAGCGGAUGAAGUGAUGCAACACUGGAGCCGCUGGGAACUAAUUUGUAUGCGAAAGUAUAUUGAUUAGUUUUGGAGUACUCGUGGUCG;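 note: selection with 25 µg/mL kanamycin versus none on LB agar overnight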
- condition.info: 37 °C
Labels assigned by self-splicing fitness (ln) range: bin 1: < -2; bin 2: ≥ -2 and < -0.7; bin 3: ≥ -0.7

Sample answers from the record:
{"residue.codes": "GGACAGCAAUAUUACGCUGA", "class": "bin 2"}
{"residue.codes": "UCAUAGCAAUAUUACGGGCA", "class": "bin 3"}
{"residue.codes": "UUUGAGCAAUAUUACGUAUU", "class": "bin 1"}
{"residue.codes": "GUAUAGCAAUAUUACGUAAA", "class": "bin 2"}
{"residue.codes": "UUGCAGCAAUAUUACGAUGC", "class": "bin 2"}

Ask | Hey, which category is "AUGUAGCAAUAUUACGACAC" in, do you know?
Reply | bin 3

Ask | And the next one, "GGGGAGCAAUAUUACGAGCG" ?
Reply | bin 2

Ask | And the next one, "AACGAGCAAUAUUACGGCUU" ?
Reply | bin 3

====

- procedure.text: self-splicing fitness, log relative to wild type (ln ratio); higher = more splicing; Tetrahymena group I intron in knt gene, E. coli kanamycin selection, DiMSum; sequences stand for … in CUCUCU…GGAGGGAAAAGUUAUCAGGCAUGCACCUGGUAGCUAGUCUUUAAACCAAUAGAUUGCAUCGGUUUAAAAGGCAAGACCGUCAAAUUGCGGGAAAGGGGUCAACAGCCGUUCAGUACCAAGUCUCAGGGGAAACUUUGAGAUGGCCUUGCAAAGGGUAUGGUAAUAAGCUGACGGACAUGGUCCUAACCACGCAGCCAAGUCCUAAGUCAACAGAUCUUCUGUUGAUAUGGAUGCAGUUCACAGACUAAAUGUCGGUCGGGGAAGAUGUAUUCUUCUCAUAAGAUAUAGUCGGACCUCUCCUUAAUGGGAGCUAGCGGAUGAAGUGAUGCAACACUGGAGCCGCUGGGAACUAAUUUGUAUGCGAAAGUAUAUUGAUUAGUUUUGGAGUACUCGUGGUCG
- condition.info: 37 °C
measurement.name: self-splicing fitness (ln)
Hey, just send me the number, nothing else.

Ask | Bench note: what self-splicing fitness (ln) did "GCUAAGCAAUAUUACGAGUU" show?
Reply | -0.818

Ask | And the next one, "CGGAAGCAAUAUUACGACGG" ?
Reply | -0.695

Ask | And the next one, "GAAGAGCAAUAUUACGUACG" ?
Reply | -2.15

====

Attribute: self-splicing fitness (ln)
- procedure.text: self-splicing fitness, log relative to wild type (ln ratio); higher = more splicing; Tetrahymena group I intron in knt gene, E. coli kanamycin selection, DiMSum; sequences stand for … in CUCUCU…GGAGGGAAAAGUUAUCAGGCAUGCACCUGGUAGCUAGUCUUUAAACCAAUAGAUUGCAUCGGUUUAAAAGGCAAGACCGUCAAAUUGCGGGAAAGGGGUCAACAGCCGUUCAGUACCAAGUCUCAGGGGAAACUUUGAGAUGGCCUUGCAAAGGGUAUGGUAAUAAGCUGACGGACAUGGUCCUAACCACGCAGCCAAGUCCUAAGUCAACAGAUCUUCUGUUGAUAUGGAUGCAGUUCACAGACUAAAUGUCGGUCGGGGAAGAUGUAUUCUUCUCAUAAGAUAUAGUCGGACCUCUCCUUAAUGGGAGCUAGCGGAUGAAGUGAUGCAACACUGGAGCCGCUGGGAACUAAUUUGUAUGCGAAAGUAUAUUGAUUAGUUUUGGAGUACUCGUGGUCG
- condition.info: 37 °C

Example cases with answers are listed next.
{"residue.codes": "UAAAAGCAAUAUUACGAGGA", "measurement.name": "self-splicing fitness (ln)", "value.observed": -1.54}
{"residue.codes": "CUGCAGCAAUAUUACGCAAA", "measurement.name": "self-splicing fitness (ln)", "value.observed": -3.55}
{"residue.codes": "AAUCAGCAAUAUUACGGGGU", "measurement.name": "self-splicing fitness (ln)", "value.observed": -1.39}

Ask | Bench note: what self-splicing fitness (ln) did "GCGAAGCAAUAUUACGUUGA" show?
Reply | -2.33

Ask | And the next one, "CGGGAGCAAUAUUACGACUU" ?
Reply | -1.83

Ask | And the next one, "AAGCAGCAAUAUUACGGGGA" ?
Reply | -1.11

Ask | And the next one, "UCCAAGCAAUAUUACGUAGA" ?
Reply | 0.437

Ask | And the next one, "CAAGAGCAAUAUUACGACGG" ?
Reply | 0.00208

Ask | And the next one, "GAGAAGCAAUAUUACGCACC" ?
Reply | -1.41

Ask | And the next one, "ACGCAGCAAUAUUACGAUUG" ?
Reply | -1.82

Ask | And the next one, "AAACAGCAAUAUUACGCCGG" ?
Reply | -1.67

====

Attribute: self-splicing fitness (ln)
- procedure.text: self-splicing fitness, log relative to wild type (ln ratio); higher = more splicing; Tetrahymena group I intron in knt gene, E. coli kanamycin selection, DiMSum; sequences stand for … in CUCUCU…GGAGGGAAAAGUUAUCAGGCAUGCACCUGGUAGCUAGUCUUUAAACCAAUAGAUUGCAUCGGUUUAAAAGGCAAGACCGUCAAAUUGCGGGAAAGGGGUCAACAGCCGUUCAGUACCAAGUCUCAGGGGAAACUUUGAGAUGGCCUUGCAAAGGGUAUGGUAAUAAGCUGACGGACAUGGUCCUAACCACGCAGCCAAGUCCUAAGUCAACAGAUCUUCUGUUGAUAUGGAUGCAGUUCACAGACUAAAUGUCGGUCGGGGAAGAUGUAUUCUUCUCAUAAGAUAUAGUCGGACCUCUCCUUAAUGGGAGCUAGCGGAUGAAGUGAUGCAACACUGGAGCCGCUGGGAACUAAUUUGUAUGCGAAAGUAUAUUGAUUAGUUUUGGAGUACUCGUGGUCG
- condition.info: 30 °C
Hey, just send me the number, nothing else.

Example cases with answers are listed next.
{"residue.codes": "UUCCAGCAAUAUUACGGGUU", "self-splicing fitness (ln)": -2.05}
{"residue.codes": "CGUUAGCAAUAUUACGUGUA", "self-splicing fitness (ln)": -3.37}
{"residue.codes": "AUCCAGCAAUAUUACGCUCC", "self-splicing fitness (ln)": -0.802}
{"residue.codes": "CUGCAGCAAUAUUACGCAGC", "self-splicing fitness (ln)": -2.88}

Ask | Bench note: what self-splicing fitness (ln) did "AGUAAGCAAUAUUACGCUCC" show?
Reply | -3.21

Ask | And the next one, "AAAUAGCAAUAUUACGGCUG" ?
Reply | -0.833

Ask | And the next one, "GGCUAGCAAUAUUACGAGCG" ?
Reply | -1.17

Ask | And the next one, "UAUAAGCAAUAUUACGCAUA" ?
Reply | -1.92

Ask | And the next one, "AUUCAGCAAUAUUACGGACA" ?
Reply | -0.904

Ask | And the next one, "ACGUAGCAAUAUUACGAUCA" ?
Reply | -0.757

Ask | And the next one, "GCUCAGCAAUAUUACGGCCG" ?
Reply | -3.86

Ask | And the next one, "AAAGAGCAAUAUUACGAUUG" ?
Reply | -4.1

Ask | And the next one, "UGUCAGCAAUAUUACGGGAC" ?
Reply | -4.31

Ask | And the next one, "GAACAGCAAUAUUACGUGCU" ?
Reply | -2.89

Ask | And the next one, "CCAUAGCAAUAUUACGUAGA" ?
Reply | -3.86

Ask | And the next one, "AUUUAGCAAUAUUACGCCCA" ?
Reply | -1.06

====

- procedure.text: self-splicing fitness, log relative to wild type (ln ratio); higher = more splicing; Tetrahymena group I intron in knt gene, E. coli kanamycin selection, DiMSum; sequences stand for … in CUCUCU…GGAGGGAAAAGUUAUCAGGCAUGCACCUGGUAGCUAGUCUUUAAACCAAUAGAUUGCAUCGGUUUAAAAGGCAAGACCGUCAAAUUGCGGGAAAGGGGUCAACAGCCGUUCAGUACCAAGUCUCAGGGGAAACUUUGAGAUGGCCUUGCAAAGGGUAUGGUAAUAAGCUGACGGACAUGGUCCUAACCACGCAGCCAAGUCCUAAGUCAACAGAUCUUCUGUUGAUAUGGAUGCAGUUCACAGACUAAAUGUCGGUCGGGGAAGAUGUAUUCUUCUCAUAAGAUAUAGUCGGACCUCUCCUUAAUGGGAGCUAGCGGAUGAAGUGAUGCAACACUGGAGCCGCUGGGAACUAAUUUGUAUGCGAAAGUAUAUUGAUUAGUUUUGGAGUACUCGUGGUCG
- condition.info: 30 °C
Attribute: self-splicing fitness (ln)

Example cases with answers are listed next.
{"residue.codes": "CGGGAGCAAUAUUACGACUU", "self-splicing fitness (ln)": -1.58}
{"residue.codes": "CUCGAGCAAUAUUACGUCGG", "self-splicing fitness (ln)": -1.37}
{"residue.codes": "GUGUAGCAAUAUUACGUGCC", "self-splicing fitness (ln)": -3.46}
{"residue.codes": "UGUGAGCAAUAUUACGUCAC", "self-splicing fitness (ln)": -3.91}
{"residue.codes": "GUUAAGCAAUAUUACGCAGG", "self-splicing fitness (ln)": -3.11}

Continue with the next sequence.
Ask | Bench note: what self-splicing fitness (ln) did "AGCAAGCAAUAUUACGACUC" show?
Reply | -1.12
